Cited source for all entries: paper PMC9667936

- target_under_test: 14-3-3γ (Homo sapiens, UniProt P61981)
- Construct: made in house; host or cells: E. coli NiCo21 (DE3)
- Sequence (P61981 1-247): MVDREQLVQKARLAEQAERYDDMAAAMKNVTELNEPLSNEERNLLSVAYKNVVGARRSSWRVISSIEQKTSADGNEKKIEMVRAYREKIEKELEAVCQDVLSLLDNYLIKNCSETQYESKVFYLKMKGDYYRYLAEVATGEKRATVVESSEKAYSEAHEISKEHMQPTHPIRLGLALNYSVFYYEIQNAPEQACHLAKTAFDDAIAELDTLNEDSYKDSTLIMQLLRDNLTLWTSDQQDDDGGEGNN
- procedure_text: Isothermal titration calorimetry (ITC) of 14-3-3 binding to peptide
- condition_context: Table S6; ITC, 25 °C; run 1
Where a SMILES comes first, the peptide text is derived from it. [ ]: non-standard residue; d: D form. ξ: configuration not given here. Phe(4-NO2) = N[C@@H](Cc1ccc([N+](=O)[O-])cc1)C(=O)O; ξAla(4-thiazolyl) = NC(Cc1cscn1)C(=O)O; pS = N[C@@H](COP(=O)(O)O)C(=O)O; β3hS = N[C@@H](CO)CC(=O)O; Nva = CCC[C@H](N)C(=O)O; ξβ3hS = NC(CO)CC(=O)O; βAla = NCCC(=O)O
Below, each of the compounds is paired with its reported -TΔS value.

compound: CCC[C@H](NC(=O)[C@H](N)CCCCN)C(=O)N[C@@H](Cc1ccc([N+](=O)[O-])cc1)C(=O)NC(Cc1cscn1)C(=O)N[C@@H](COP(=O)(O)O)C(=O)N[C@@H](Cc1ccc([N+](=O)[O-])cc1)C(=O)NC(CO)CC(=O)NCCC(=O)N[C@@H](Cc1ccc([N+](=O)[O-])cc1)C(=O)N[C@@H](CCCCN)C(N)=O (stereo partly drawn) [compound 1] (H-[dK][Nva][Phe(4-NO2)][ξAla(4-thiazolyl)][pS][Phe(4-NO2)][ξβ3hS][βAla][Phe(4-NO2)]K-NH2)
target_under_test: 14-3-3γ (Homo sapiens, UniProt P61981)
-TΔS: 0,933 kcal mol^-1
--
compound: CCC[C@H](NC(=O)[C@H](N)CCCCN)C(=O)N[C@@H](Cc1ccc([N+](=O)[O-])cc1)C(=O)NC(Cc1cscn1)C(=O)N[C@@H](COP(=O)(O)O)C(=O)N[C@@H](Cc1ccc([N+](=O)[O-])cc1)C(=O)N[C@@H](CO)CC(=O)NCCC(=O)N[C@@H](Cc1ccc(O)cc1)C(=O)N[C@@H](CCCCN)C(N)=O (stereo partly drawn) [5a] (H-[dK][Nva][Phe(4-NO2)][ξAla(4-thiazolyl)][pS][Phe(4-NO2)][β3hS][βAla]YK-NH2; N-terminus and C-terminus assumed)
target_under_test: 14-3-3γ (Homo sapiens, UniProt P61981)
-TΔS: -1,834 kcal mol^-1
--
compound: CCC[C@H](NC(=O)[C@H](N)CCCCN)C(=O)N[C@@H](Cc1ccc([N+](=O)[O-])cc1)C(=O)NC(Cc1cscn1)C(=O)N[C@@H](COP(=O)(O)O)C(=O)N[C@@H](C)C(=O)N[C@@H](CO)CC(=O)NCCC(=O)N[C@@H](Cc1ccc([N+](=O)[O-])cc1)C(=O)N[C@@H](CCCCN)C(N)=O (stereo partly drawn) [4c] (H-[dK][Nva][Phe(4-NO2)][ξAla(4-thiazolyl)][pS]A[β3hS][βAla][Phe(4-NO2)]K-NH2; N-terminus and C-terminus assumed)
target_under_test: 14-3-3γ (Homo sapiens, UniProt P61981)
-TΔS: -3,445 kcal mol^-1
--
compound: CCC[C@H](NC(=O)[C@H](N)CCCCN)C(=O)N[C@@H](Cc1ccc([N+](=O)[O-])cc1)C(=O)NC(Cc1cscn1)C(=O)N[C@@H](COP(=O)(O)O)C(=O)N[C@@H](Cc1ccccc1)C(=O)N[C@@H](CO)CC(=O)NCCC(=O)N[C@@H](Cc1ccc([N+](=O)[O-])cc1)C(=O)N[C@@H](CCCCN)C(N)=O (stereo partly drawn) [4b] (H-[dK][Nva][Phe(4-NO2)][ξAla(4-thiazolyl)][pS]F[β3hS][βAla][Phe(4-NO2)]K-NH2; N-terminus and C-terminus assumed)
target_under_test: 14-3-3γ (Homo sapiens, UniProt P61981)
-TΔS: -2,391 kcal mol^-1
--
compound: CCC[C@H](NC(=O)[C@H](N)CCCCN)C(=O)N[C@@H](Cc1ccc([N+](=O)[O-])cc1)C(=O)NC(Cc1cscn1)C(=O)N[C@@H](COP(=O)(O)O)C(=O)N[C@@H](Cc1ccc([N+](=O)[O-])cc1)C(=O)N[C@@H](CO)CC(=O)NCCC(=O)N[C@@H](C)C(=O)N[C@@H](CCCCN)C(N)=O (stereo partly drawn) [5c] (H-[dK][Nva][Phe(4-NO2)][ξAla(4-thiazolyl)][pS][Phe(4-NO2)][β3hS][βAla]AK-NH2; N-terminus and C-terminus assumed)
target_under_test: 14-3-3γ (Homo sapiens, UniProt P61981)
-TΔS: -5,204 kcal mol^-1
--
compound: CCC[C@H](NC(=O)[C@H](N)CCCCN)C(=O)N[C@@H](Cc1ccc([N+](=O)[O-])cc1)C(=O)N[C@@H](C)C(=O)N[C@@H](COP(=O)(O)O)C(=O)N[C@@H](Cc1ccc([N+](=O)[O-])cc1)C(=O)N[C@@H](CO)CC(=O)NCCC(=O)N[C@@H](Cc1ccc([N+](=O)[O-])cc1)C(=O)N[C@@H](CCCCN)C(N)=O [3a] (H-[dK][Nva][Phe(4-NO2)]A[pS][Phe(4-NO2)][β3hS][βAla][Phe(4-NO2)]K-NH2; N-terminus and C-terminus assumed)
target_under_test: 14-3-3γ (Homo sapiens, UniProt P61981)
-TΔS: -1,624 kcal mol^-1
--
compound: CCC[C@H](NC(=O)[C@H](N)CCCCN)C(=O)N[C@@H](Cc1ccc([N+](=O)[O-])cc1)C(=O)NC(Cc1cscn1)C(=O)N[C@@H](COP(=O)(O)O)C(=O)N[C@@H](Cc1ccc(O)cc1)C(=O)N[C@@H](CO)CC(=O)NCCC(=O)N[C@@H](Cc1ccc([N+](=O)[O-])cc1)C(=O)N[C@@H](CCCCN)C(N)=O (stereo partly drawn) [4a] (H-[dK][Nva][Phe(4-NO2)][ξAla(4-thiazolyl)][pS]Y[β3hS][βAla][Phe(4-NO2)]K-NH2; N-terminus and C-terminus assumed)
target_under_test: 14-3-3γ (Homo sapiens, UniProt P61981)
-TΔS: -3,582 kcal mol^-1
--
compound: CCC[C@H](NC(=O)[C@H](N)CCCCN)C(=O)N[C@@H](Cc1ccc([N+](=O)[O-])cc1)C(=O)NC(Cc1cscn1)C(=O)N[C@@H](COP(=O)(O)O)C(=O)N[C@@H](Cc1ccc([N+](=O)[O-])cc1)C(=O)N[C@@H](CO)CC(=O)NCCC(=O)N[C@@H](Cc1ccccc1)C(=O)N[C@@H](CCCCN)C(N)=O (stereo partly drawn) [5b] (H-[dK][Nva][Phe(4-NO2)][ξAla(4-thiazolyl)][pS][Phe(4-NO2)][β3hS][βAla]FK-NH2; N-terminus and C-terminus assumed)
target_under_test: 14-3-3γ (Homo sapiens, UniProt P61981)
-TΔS: -3,227 kcal mol^-1
